System: L1210.Hyor
Assay: Cytostatic assay, Mycoplasma hyorhinis-infected L1210 cells
Details: Mus musculus, L1210, read-out: IC50 L1210.Hyor
QUANTITY MEASURED: IC50 (nM)
Dear colleague, please return just the value in nM, with no unit written.

GET /values?readout=IC50&item= O=C(OCc1ccccc1)C1CCCN1P(=O)(OC[C@H]1O[C@@H](n2cc(F)c(=O)[nH]c2=O)CC1O)Oc1cccc2ccccc12 (stereo partly drawn)
650

GET /values?readout=IC50&item= C[C@H](NP(=O)(OC[C@H]1O[C@@H](n2cc(F)c(=O)[nH]c2=O)CC1O)Oc1cccc2ccccc12)C(=O)OCC1CC1 (stereo partly drawn)
31

GET /values?readout=IC50&item= C[C@H](NP(=O)(OC[C@H]1O[C@@H](n2cc(F)c(=O)[nH]c2=O)CC1O)Oc1cccc2ccccc12)C(=O)OCC(C)(C)C (stereo partly drawn)
180

====

System: L1210.Hyor
Assay: Cytostatic assay, Mycoplasma hyorhinis-infected L1210 cells
Settings: Mus musculus, L1210, read-out: CC50 L1210/Hyor
QUANTITY MEASURED: CC50 (nM)
Dear colleague, please return just the value in nM, with no unit written.

Answered examples (2):
{"MOLECULE": "O=C(OCc1ccccc1)[C@H](Cc1ccccc1)NP(=O)(OC[C@H]1O[C@@H](n2cc(F)c(=O)[nH]c2=O)CC1O)Oc1cccc2ccccc12 (stereo partly shown)", "SYSTEM TESTED": "L1210.Hyor", "CC50 [nM]": 4200}
{"MOLECULE": "C[C@H](NP(=O)(OC[C@H]1O[C@@H](n2cc(F)c(=O)[nH]c2=O)CC1O)Oc1cccc2ccccc12)C(=O)OCC1CC1 (stereo partly shown)", "SYSTEM TESTED": "L1210.Hyor", "CC50 [nM]": 45}

GET /values?readout=CC50&item= CCCCCOC(=O)[C@H](C)NP(=O)(OC[C@H]1O[C@@H](n2cc(F)c(=O)[nH]c2=O)CC1O)Oc1cccc2ccccc12 (stereo partly shown)
17

GET /values?readout=CC50&item= C[C@H](NP(=O)(OC[C@H]1O[C@@H](n2cc(F)c(=O)[nH]c2=O)CC1O)Oc1cccc2ccccc12)C(=O)OC1CCOCC1 (stereo partly shown)
410

====

System: HeLa/TK^−
Experiment: Cytostatic assay, HeLa/TK^− cells
Format: cell-based
Settings: Homo sapiens, HeLa; Table 6; read-out: IC50 HeLa/TK^−
Each item that follows carries a reported IC50.
Dear colleague, please return just the value in nM, with no unit written.

Answered examples (5):
{"COMPOUND": "C[C@H](NP(=O)(OC[C@H]1O[C@@H](n2cc(F)c(=O)[nH]c2=O)CC1O)Oc1cccc2ccccc12)C(=O)OCc1ccccc1 (stereo partly shown) [CPF 373]", "IC50 [nM]": 2500}
{"COMPOUND": "C[C@H](NP(=O)(OC[C@H]1O[C@@H](n2cc(F)c(=O)[nH]c2=O)CC1O)Oc1cccc2ccccc12)C(=O)OC1CCOCC1 (stereo partly shown) [CPF 580]", "IC50 [nM]": 15000}
{"COMPOUND": "C[C@H](NP(=O)(OC[C@H]1O[C@@H](n2cc(F)c(=O)[nH]c2=O)CC1O)Oc1cccc2ccccc12)C(=O)OCC(C)(C)C (stereo partly shown) [CPF 588]", "IC50 [nM]": 32000}
{"COMPOUND": "CCCCCOC(=O)[C@H](C)NP(=O)(OC[C@H]1O[C@@H](n2cc(F)c(=O)[nH]c2=O)CC1O)Oc1cccc2ccccc12 (stereo partly shown) [CPF 581]", "IC50 [nM]": 440}
{"COMPOUND": "CCOC(=O)[C@H](C)NP(=O)(OC[C@H]1O[C@@H](n2cc(F)c(=O)[nH]c2=O)CC1O)Oc1ccccc1 (stereo partly shown) [CPF 383]", "IC50 [nM]": 9800}

GET /values?readout=IC50&item= C[C@H](NP(=O)(OC[C@H]1O[C@@H](n2cc(F)c(=O)[nH]c2=O)CC1O)Oc1cccc2ccccc12)C(=O)OC1CCCC1 (stereo partly shown) [CPF 582]
2200

GET /values?readout=IC50&item= CCOC(=O)[C@H](C)NP(=O)(OC[C@H]1O[C@@H](n2cc(F)c(=O)[nH]c2=O)CC1O)Oc1cccc2ccccc12 (stereo partly shown) [CPF 386]
2800

====

Tested on: L1210.Hyor
Assay: Cytostatic assay, Mycoplasma hyorhinis-infected L1210 cells
Conditions: read-out: CC50 L1210/Hyor; Table 2, mycoplasma positive cells
Each item that follows carries a reported CC50.
Dear colleague, please return just the value in nM, with no unit written.

{"MOLECULE": "C[C@H](NP(=O)(OC[C@H]1O[C@@H](n2cc(F)c(=O)[nH]c2=O)CC1O)Oc1ccccc1)C(=O)OCc1ccccc1 (stereo partly drawn)", "CC50, nM": 150}
{"MOLECULE": "CC(C)(NP(=O)(OCC1OC(n2cc(F)c(=O)[nH]c2=O)CC1O)Oc1cccc2ccccc12)C(=O)OCc1ccccc1 (stereo not drawn)", "CC50, nM": 45}

GET /values?readout=CC50&item= CC(C)C(NP(=O)(OCC1OC(n2cc(F)c(=O)[nH]c2=O)CC1O)Oc1cccc2ccccc12)C(=O)OC1CCCCC1 (stereo not drawn)
2730

====

System: L1210/TK^−
Assay: Cytostatic assay, thymidine kinase-deficient L1210/TK^− cells
Format: cell-based, murine
Conditions: Mus musculus, L1210, read-out: IC50 L1210/TK^−
QUANTITY MEASURED: IC50
A bare number is not enough; add the unit after it.

GET /values?readout=IC50&item= O=C(OCc1ccccc1)C1CCCN1P(=O)(OC[C@H]1O[C@@H](n2cc(F)c(=O)[nH]c2=O)CC1O)Oc1cccc2ccccc12 (some centres unmarked)
25 µM

GET /values?readout=IC50&item= O=C(OCc1ccccc1)C1CCCN1P(=O)(OC[C@H]1O[C@@H](n2cc(F)c(=O)[nH]c2=O)CC1O)Oc1ccccc1 (some centres unmarked)
31 µM

====

Biological target: thymidylate synthase (TS) (Mus musculus)
Sequence (P07607 whole entry): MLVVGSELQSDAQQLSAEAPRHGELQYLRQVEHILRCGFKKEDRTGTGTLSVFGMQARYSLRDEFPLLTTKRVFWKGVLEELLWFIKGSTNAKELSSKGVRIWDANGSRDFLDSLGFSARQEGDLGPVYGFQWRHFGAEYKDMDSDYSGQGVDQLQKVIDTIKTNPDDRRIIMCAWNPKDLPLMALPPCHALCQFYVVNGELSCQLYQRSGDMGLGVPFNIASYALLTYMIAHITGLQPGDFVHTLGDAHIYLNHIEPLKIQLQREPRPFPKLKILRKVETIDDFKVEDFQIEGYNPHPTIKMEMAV
Test: TS activity in intact L1210/0 cells (tritium release)
Type: cell-based, murine
Details: tritium release from [5-3H]dCyd, 4 hours preincubation; read-out: IC50 against TS, L1210/0
QUANTITY MEASURED: pIC50
Keep it numeric: pIC50 is minus log10 of the concentration in mol/L.

{"MOLECULE": "O=c1[nH]c(=O)n([C@H]2C[C@H](O)[C@@H](CO)O2)cc1F [5-FdUrd, 5-fluoro-2′-deoxyuridine, reference compound]", "RECORDED NUMBER": 9.52}

Let us move to another entry and its pIC50.
GET /values?readout=pIC50&item= C[C@H](NP(=O)(OC[C@H]1O[C@@H](n2cc(F)c(=O)[nH]c2=O)CC1O)Oc1cccc2ccccc12)C(=O)OCc1ccccc1 (some centres unmarked)
7.89

====

Each item that follows carries a reported IC50.
Tested on: Cem/hEnt-1
Experiment: Cytostatic assay, CEM cells containing the hEnt1 transporter
Format: cell-based
Settings: read-out: IC50 Cem/hEnt-1 + NBMPR; in the presence of NBMPR
Dear colleague, please return just the value in nM, with no unit written.

{"COMPOUND": "CCOC(=O)C(C)(C)NP(=O)(OC[C@H]1O[C@@H](n2cc(F)c(=O)[nH]c2=O)CC1O)Oc1cccc2ccccc12 (stereo partly shown)", "RECORDED NUMBER": 620}
{"COMPOUND": "CCOC(=O)C(C)(C)NP(=O)(OC[C@H]1O[C@@H](n2cc(F)c(=O)[nH]c2=O)CC1O)Oc1ccccc1 (stereo partly shown)", "RECORDED NUMBER": 2560}
{"COMPOUND": "C[C@H](NP(=O)(OC[C@H]1O[C@@H](n2cc(F)c(=O)[nH]c2=O)CC1O)Oc1cccc2ccccc12)C(=O)OCc1ccccc1 (stereo partly shown)", "RECORDED NUMBER": 260}

Let us move to another entry and its IC50.
GET /values?readout=IC50&item= CC(C)(NP(=O)(OC[C@H]1O[C@@H](n2cc(F)c(=O)[nH]c2=O)CC1O)Oc1ccccc1)C(=O)OCc1ccccc1 (stereo partly shown)
610

====

Target: thymidylate synthase (TS) (Mus musculus)
Assay: TS activity in intact L1210/0 cells (tritium release)
Format: cell-based, murine
Conditions: L1210/0, 30 min preincubation, both substrates; read-out: IC50 for tritium release from [5-3H]dCyd and [5-3H]dUrd
Each item that follows carries a reported IC50.

{"MOLECULE": "O=c1[nH]c(=O)n([C@H]2C[C@H](O)[C@@H](CO)O2)cc1F [5-FdUrd, 5-fluoro-2′-deoxyuridine, reference compound]", "QUANTITY MEASURED": "IC50", "RESULT": "0.0007 to 0.0009 µM"}

Let us move to another entry and its IC50.
GET /values?readout=IC50&item= C[C@H](NP(=O)(OC[C@H]1O[C@@H](n2cc(F)c(=O)[nH]c2=O)CC1O)Oc1cccc2ccccc12)C(=O)OCc1ccccc1 (some centres unmarked)
0.16 to 0.19 µM
